experiment: Solubility in oil of the dosing preparation (compound in Crisco); format: physicochemical; conditions: appearance in oil, in parentheses after compound number
Reported solubility in oil by item:

See these solved cases before continuing.
INSERT INTO assay_data (compound_structure, result) VALUES
  ('O=C(NC1CCN(C(=O)c2ccccc2)CC1)NC12CC3CC(CC(C3)C1)C2', '1159 (Opaque)'),
  ('O=C(NC1CCN(C(=O)c2ccccn2)CC1)NC12CC3CC(CC(C3)C1)C2', '1201 (Suspension)'),
  ('CC(=O)N1CCC(NC(=O)Nc2ccc(OC(F)(F)F)cc2)CC1', '1555 (Opaque)'),
  ('CCCC(=O)N1CCC(NC(=O)NC23CC4CC(CC(C4)C2)C3)CC1', '1157 (Opaque)');

Give a short answer stating reported solubility in oil for CC(=O)N1CCC(NC(=O)NC23CC4CC(CC(C4)C2)C3)CC1 .
1153 (Opaque)

Note solubility in oil for the molecule shown: COC(=O)c1ccc(C(=O)N2CCC(NC(=O)NC34CC5CC(CC(C5)C3)C4)CC2)cc1
1204 (Opaque)

State its solubility in oil for this molecule: CCC(=O)N1CCC(NC(=O)NC23CC4CC(CC(C4)C2)C3)CC1
1163 (Opaque)

Could you please provide reported solubility in oil for COC(=O)CCCC(=O)N1CCC(NC(=O)NC23CC4CC(CC(C4)C2)C3)CC1 ? Thanks!
1206 (Opaque)

Please list solubility in oil recorded for the molecule O=C(NC1CCN(C(=O)C(F)(F)F)CC1)NC12CC3CC(CC(C3)C1)C2
1606 (Suspension)

Provide solubility in oil value for the following molecule: O=C(NCC1CCN(C(=O)c2ccccc2)CC1)NC12CC3CC(CC(C3)C1)C2
1121 (Not dissolved)
